Where do these numbers come from? They come from patent US20230365662A1.

Some binders, each annotated with its measured OD450nm.
target: HRgpA-6H (Porphyromonas gingivalis) (UniProt P28784); test: ELISA, FASEBA Fab on coated HRgpA-6H
Lab note: jot the number down without any unit.

Asked: Query: OD450nm; subject: KB001 mouse Fab VL T100K (Fab, V domains shown) VH: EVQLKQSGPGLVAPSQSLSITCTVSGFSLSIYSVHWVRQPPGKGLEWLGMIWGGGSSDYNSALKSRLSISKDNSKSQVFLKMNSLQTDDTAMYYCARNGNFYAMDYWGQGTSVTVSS VL: QIVLTQSPAIMSASLGERVTMTCTASSSVSSSFLHWYQQKPGSSPQLWIYSTSNLASGVPARFSGSGSGTSYSLTISSMEAEDAATYYCHQYHHSPYIYKFGGGTKLEIK
Given back: 0.625

Asked: Query: OD450nm; subject: KB001 mouse Fab VL N54W (Fab, V domains shown) VH: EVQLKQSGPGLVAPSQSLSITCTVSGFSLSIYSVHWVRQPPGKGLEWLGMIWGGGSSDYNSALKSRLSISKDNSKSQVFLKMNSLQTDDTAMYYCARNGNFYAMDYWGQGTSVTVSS VL: QIVLTQSPAIMSASLGERVTMTCTASSSVSSSFLHWYQQKPGSSPQLWIYSTSWLASGVPARFSGSGSGTSYSLTISSMEAEDAATYYCHQYHHSPYIYTFGGGTKLEIK
Given back: 0.646
